# Test system: KM12 colon
# EXPERIMENT_NOTES: NCI tumour cell line growth inhibition, 48 h; in the data active means GI50 below about 0.43 µM; inactive means the rest
Mark one answer only. Choices: active, inactive

Known results for compounds:
| COMPOUND | ASSIGNED_CLASS |
| --- | --- |
| COc1cc(C(=O)/C=C/c2c(C(F)(F)F)nc3sccn23)cc(OC)c1OC | inactive |
| Nc1ccc2c(c1)CN1C(=O)c3ccccc3C1=N2 | inactive |
| O=C1/C(=C/c2ccccc2)CN(C(=O)Oc2ccc([N+](=O)[O-])cc2)C/C1=C\c1ccccc1 | inactive |
| CCNC(=O)Oc1ccc(/C(=C(\C)c2ccc(Cl)cc2)c2ccc(OCCN3CCCCC3)cc2)cc1 | inactive |
| C[C@]12CC[C@@H]3c4ccc(O)cc4CC[C@H]3[C@@H]1CC[C@@H]2NS(=O)(=O)c1ccc(-c2ccccc2)cc1 | inactive |

What call does the record list for Cn1cc(-c2nn3cc(-c4cccs4)nc3s2)c2cc(F)ccc21 ?
inactive

# repeat for CCCCCCN(CCCCCC)CC(O)c1cccc2ccc(Cl)cc12 (configuration not stated)
inactive

# repeat for CCCCCCCCCCCCNC(=O)[C@H]1CSC(c2ccc(OC)c(F)c2)N1 (some centres not stated)
active

# repeat for COc1ccc(N=C2NN=C(c3c[nH]c4ccccc34)CS2)cc1OC
inactive

# repeat for CCCCCCN1C(=O)CN=C1Nc1ccc2cc3ccc(NC4=NCC(=O)N4CCCCCC)cc3nc2c1
inactive

# repeat for O=c1[nH]c(-c2ccccn2)nc2sc3c(c12)CCCCCC3
inactive

# repeat for Cc1cc(N)c2ccccc2[n+]1CCCCCCCCCC[n+]1c(C)cc(N)c2ccccc21
active

Sourced from PubChem BioAssay (NCI)
